test system: HEK293T (UBE3A T485A transfected, BAR Wnt reporter); test: Renilla luciferase signal (cell health) relative to plate median (fold (linear ratio)); higher = higher Renilla signal; settings: concentration: 10 uM; 24 h
Over roughly 1,100 compounds, “Renilla luciferase signal (cell health) relative to plate median” has its median near 0.97; the highest 2% begin near 1.6. For the sample, the highest values were picked, then their nearest neighbours and some compounds at random.
Exercise: for every item that follows, state its recorded Renilla luciferase signal.
Number, no unit, nothing else.

Query: Report Renilla luciferase signal for Cc1cc(Cc2ccc(N)c(C)c2)ccc1N please.
Response: 0.902

Query: Report Renilla luciferase signal for O=C(O)COc1ccc(Cl)cc1Cl please.
Response: 1.02

Query: Report Renilla luciferase signal for C[N+]1(C)CCCCC1.[Cl-] [Mepiquat chloride] please.
Response: 1.02

Query: Report Renilla luciferase signal for CCNc1nc(Cl)nc(NC(C)(C)C)n1 please.
Response: 0.978

Query: Report Renilla luciferase signal for Oc1cc(Cl)ccc1Oc1ccc(Cl)cc1Cl please.
Response: 0.911

Query: Report Renilla luciferase signal for CNC(=O)ON=CC(C)(C)SC please.
Response: 0.918

Query: Report Renilla luciferase signal for COc1nc(NC(C)C)nc(NC(C)C)n1 please.
Response: 1.02

Query: Report Renilla luciferase signal for Cc1ccccc1N please.
Response: 1.25

Query: Report Renilla luciferase signal for O=C(NC(=O)c1c(F)cccc1F)Nc1ccc(OC(F)(F)C(F)OC(F)(F)F)c(Cl)c1 (centres undefined) please.
Response: 0.935

Query: Report Renilla luciferase signal for O=C(O)CCCOc1ccc(Cl)cc1Cl please.
Response: 0.957

Query: Report Renilla luciferase signal for CC(C)(O)C(=O)Nc1ccc([N+](=O)[O-])c(C(F)(F)F)c1 [Hydroxyflutamide] please.
Response: 0.775

Query: Report Renilla luciferase signal for CCOc1nc(F)cc2nc(S(=O)(=O)Nc3c(Cl)cccc3Cl)nn12 please.
Response: 0.878

Query: Report Renilla luciferase signal for ClC1=C(Cl)C2(Cl)C3C4CC(C5OC45)C3C1(Cl)C2(Cl)Cl (centres undefined) please.
Response: 0.842

Query: Report Renilla luciferase signal for O=C(O)COc1nc(Cl)c(Cl)cc1Cl please.
Response: 1.02

Query: Report Renilla luciferase signal for CCN(CC)N=O please.
Response: 1.07

Query: Report Renilla luciferase signal for CCC(=O)O[C@H]1CC[C@H]2[C@@H]3CCC4=CC(=O)CC[C@]4(C)[C@H]3CC[C@]12C [Testosterone propionate] please.
Response: 0.878

Query: Report Renilla luciferase signal for N#Cc1c(Cl)cccc1Cl please.
Response: 0.992

Query: Report Renilla luciferase signal for CCCCC(CC)COC(=O)CCCCC(=O)OCC(CC)CCCC (centres undefined) [Di(2-ethylhexyl) adipate] please.
Response: 1.28

Query: Report Renilla luciferase signal for Fc1ccc(Oc2ccnc3cc(Cl)cc(Cl)c23)cc1 please.
Response: 1.03

Query: Report Renilla luciferase signal for CSC(=O)c1c(C(F)F)nc(C(F)(F)F)c(C(=O)SC)c1CC(C)C please.
Response: 0.835

Query: Report Renilla luciferase signal for C[C@]12CCC(=O)C[C@@H]1CC[C@@H]1[C@@H]2CC[C@]2(C)[C@@H](O)CC[C@@H]12 [5alpha-Dihydrotestosterone] please.
Response: 1

Query: Report Renilla luciferase signal for CNC(=O)Oc1cccc2c1OC(C)(C)C2 please.
Response: 0.953

Query: Report Renilla luciferase signal for CCN(CC)c1nc(C)cc(OP(=S)(OC)OC)n1 please.
Response: 0.992

Query: Report Renilla luciferase signal for COC(=O)C(C)Oc1ccc(Oc2ccc(Cl)cc2Cl)cc1 (centres undefined) please.
Response: 0.936

Query: Report Renilla luciferase signal for O=[N+]([O-])c1ccc(Cl)cc1 please.
Response: 0.993

Query: Report Renilla luciferase signal for CCOC(=O)COc1cc(-c2nn(C)c(OC(F)F)c2Cl)c(F)cc1Cl please.
Response: 0.846

Query: Report Renilla luciferase signal for Oc1ccccc1-c1ccccc1 please.
Response: 1.01

Query: Report Renilla luciferase signal for Cc1nn(-c2cc(NS(C)(=O)=O)c(Cl)cc2Cl)c(=O)n1C(F)F please.
Response: 1.04

Query: Report Renilla luciferase signal for CCCCC(CC)COC(=O)c1ccc(C(=O)OCC(CC)CCCC)c(C(=O)OCC(CC)CCCC)c1 (centres undefined) [Tris(2-ethylhexyl) trimellitate] please.
Response: 0.972

====

system: HEK293T (UBE3A T485A transfected, BAR Wnt reporter); test: Renilla luciferase signal (cell health) relative to plate median (fold (linear ratio)); higher = higher Renilla signal; conditions: concentration: 100 uM; 24 h
In all, about 1,100 compounds were measured (“Renilla luciferase signal (cell health) relative to plate median”: median about 0.97, highest 2% from about 1.6 on). This is one part of a sample in which the highest values are shown more often than they occur.
Exercise: for every item that follows, state its recorded Renilla luciferase signal.
Number, no unit, nothing else.

Query: API: value(readout=Renilla luciferase signal, system=HEK293T (UBE3A T485A transfected, BAR Wnt reporter)) for record CCNc1nc(NC(C)C)nc(SC)n1 [Ametryn]
Response: 1.78

Query: API: value(readout=Renilla luciferase signal, system=HEK293T (UBE3A T485A transfected, BAR Wnt reporter)) for record CCCCC(CC)COC(=O)c1ccc(C(=O)OCC(CC)CCCC)cc1 (stereo not drawn) [Bis(2-ethylhexyl) terephthalate]
Response: 1.28

Query: API: value(readout=Renilla luciferase signal, system=HEK293T (UBE3A T485A transfected, BAR Wnt reporter)) for record O=C(O)c1cc(Oc2ccc(C(F)(F)F)cc2Cl)ccc1[N+](=O)[O-] [Acifluorfen]
Response: 1.67

Query: API: value(readout=Renilla luciferase signal, system=HEK293T (UBE3A T485A transfected, BAR Wnt reporter)) for record COC(=O)N(OC)c1ccccc1COc1ccn(-c2ccc(Cl)cc2)n1 [Pyraclostrobin]
Response: 0.113

Query: API: value(readout=Renilla luciferase signal, system=HEK293T (UBE3A T485A transfected, BAR Wnt reporter)) for record CN(C)c1ccc(C(=O)c2ccc(N(C)C)cc2)cc1 [Michler's ketone]
Response: 0.267

Query: API: value(readout=Renilla luciferase signal, system=HEK293T (UBE3A T485A transfected, BAR Wnt reporter)) for record Oc1cccc2cccnc12 [8-Hydroxyquinoline]
Response: 0.0228

Query: API: value(readout=Renilla luciferase signal, system=HEK293T (UBE3A T485A transfected, BAR Wnt reporter)) for record CC1C(c2ccc(Cl)cc2)SC(=O)N1C(=O)NC1CCCCC1 (stereo not drawn) [Hexythiazox]
Response: 0.244

Query: API: value(readout=Renilla luciferase signal, system=HEK293T (UBE3A T485A transfected, BAR Wnt reporter)) for record ClC(Cl)(Cl)c1ccccc1 [Benzotrichloride]
Response: 1.04

====

test system: HEK293T (UBE3A T485A transfected, BAR Wnt reporter); assay: Renilla luciferase signal (cell health) relative to plate median (fold (linear ratio)); higher = higher Renilla signal; conditions: concentration: 10 uM; 24 h
Whole data set: some 1,100 compounds, median “Renilla luciferase signal (cell health) relative to plate median” near 0.97, cut for the highest 2% near 1.6. This is one part of a sample in which the highest values are shown more often than they occur.
# if value of Renilla luciferase signal reaches 1, tag Y; if it stays below, tag N

Query: hey, is Renilla luciferase signal for this one >= 1? O=c1n(Cl)c(=O)n(Cl)c(=O)n1Cl [Symclosene]
Response: Y

Query: hey, is Renilla luciferase signal for this one >= 1? C1=Cc2cccc3cccc1c23 [Acenaphthylene]
Response: N

Query: hey, is Renilla luciferase signal for this one >= 1? Clc1ccc(C(c2ccc(Cl)cc2)C(Cl)(Cl)Cl)cc1
Response: N

Query: hey, is Renilla luciferase signal for this one >= 1? COC(=O)c1ccccc1N [Methyl 2-aminobenzoate]
Response: Y

Query: hey, is Renilla luciferase signal for this one >= 1? C[C@@H]1C[C@@H]([C@H](O)CC2CC(=O)NC(=O)C2)C(=O)[C@@H](C)C1 [Cycloheximide]
Response: N

Query: hey, is Renilla luciferase signal for this one >= 1? CN(C)C(=O)Nc1cccc(C(F)(F)F)c1 [Fluometuron]
Response: N

Query: hey, is Renilla luciferase signal for this one >= 1? CS(=O)(=O)NC(=O)c1cc(Oc2ccc(C(F)(F)F)cc2Cl)ccc1[N+](=O)[O-] [Fomesafen]
Response: Y

Query: hey, is Renilla luciferase signal for this one >= 1? CCOP(=S)(Oc1cnc(C(C)(C)C)nc1)OC(C)C (stereo not drawn) [Tebupirimfos]
Response: Y

Query: hey, is Renilla luciferase signal for this one >= 1? CCOC(=O)C(C)OC(=O)c1cc(Oc2ccc(C(F)(F)F)cc2Cl)ccc1[N+](=O)[O-] (stereo not drawn) [Lactofen]
Response: N

Query: hey, is Renilla luciferase signal for this one >= 1? CCCCOCN(C(=O)CCl)c1c(CC)cccc1CC [Butachlor]
Response: N

Query: hey, is Renilla luciferase signal for this one >= 1? CN(C)c1nc(=O)n(C2CCCCC2)c(=O)n1C [Hexazinone]
Response: N

Query: hey, is Renilla luciferase signal for this one >= 1? CO/N=C(/C1=NOCCO1)c1ccccc1Oc1ncnc(Oc2ccccc2Cl)c1F [Fluoxastrobin]
Response: N

Query: hey, is Renilla luciferase signal for this one >= 1? NCCO.O=C(O)c1nc(Cl)ccc1Cl [Clopyralid-olamine]
Response: Y

Query: hey, is Renilla luciferase signal for this one >= 1? CCN(CC)c1ccccc1 [N,N-Diethylaniline]
Response: Y

Query: hey, is Renilla luciferase signal for this one >= 1? C1=CCCC=CCCC=CCC1 [1,5,9-Cyclododecatriene]
Response: N

Query: hey, is Renilla luciferase signal for this one >= 1? O=P(Oc1ccccc1)(Oc1ccccc1)Oc1ccccc1 [Triphenyl phosphate]
Response: N

Query: hey, is Renilla luciferase signal for this one >= 1? COP(=S)(OC)Oc1nc(Cl)c(Cl)cc1Cl [Chlorpyrifos-methyl]
Response: Y

Query: hey, is Renilla luciferase signal for this one >= 1? CC(C)[C@H](C(=O)O[C@H](C#N)c1cccc(Oc2ccccc2)c1)c1ccc(Cl)cc1 [Esfenvalerate]
Response: N

Query: hey, is Renilla luciferase signal for this one >= 1? CC(Cc1ccc(OCC(=O)O)cc1)NCC(O)c1csc(C(F)(F)F)n1 (stereo not drawn)
Response: N

Query: hey, is Renilla luciferase signal for this one >= 1? c1cc2c3c(cccc3c1)CC2 [Acenaphthene]
Response: Y

Query: hey, is Renilla luciferase signal for this one >= 1? CCOP(=S)(OCC)Oc1ccc2c(C)c(Cl)c(=O)oc2c1 [Coumaphos]
Response: Y

Query: hey, is Renilla luciferase signal for this one >= 1? C#CC(C)(C)NC(=O)c1cc(Cl)cc(Cl)c1 [Propyzamide]
Response: Y

Query: hey, is Renilla luciferase signal for this one >= 1? CNC(=S)[S-].O.O.O.[Na+] [Metam-sodium hydrate]
Response: Y

Query: hey, is Renilla luciferase signal for this one >= 1? Nc1c(Cl)c(Cl)nc(C(=O)O)c1Cl [Picloram]
Response: Y
